Each recorded value in this set is attributed to paper PMC11187106.

pKd listing for selected binders.
- TARGET_SYSTEM: CtBP1(K46W) (human, UniProt Q13363 1-440, K46W)
- ASSAY_OVERVIEW: ITC; VP-ITC, 25 °C, 50 mM HEPES (pH 7.2), 150 mM NaCl; CtBP in the cell (10 µM for RAI2 M1 or M2, 20 µM for the WT RAI2 constructs), RAI2 in the syringe (100 µM); mean of three independent measurements ± SD
- CONDITION_INFO: both partners purified
pKd field: float, defined as -log10 of concentration (mol/L).

BINDER: SRHTVIKMGSENEALDLSMKSVPWLKAGALDLSVAAHRKSEPPPETLYD (domain or fragment, UniProt Q9Y5P3 303-362, looked up, source: E. coli BL21 DE3 LOBSTR, purified (HisTrap, TEV cleavage, Superdex 75); not shown: His6, N-terminal, cleaved) [RAI2(Δ11, 303-362)]
pKd: 5.14

*Q* Which pKd is listed for RAI2(WT, 303-362) (domain or fragment, this construct came from the same vector (pETGB1a, TEV site) and may carry the same residues; source: E. coli BL21 DE3 LOBSTR, purified (HisTrap, TEV cleavage, Superdex 75); not shown: His6, N-terminal, cleaved) SRHTVIKMGSENEALDLSMKSVPWLKAGEVSPPIFQEDAALDLSVAAHRKSEPPPETLYD ?
*A* 5.35
